test.details: total protein half-life in vivo (active degradation + dilution); higher = more stable protein
experimental.conditions: wild type E. coli NCM3722; growth: C-lim chemostat; doubling time 3 h
observation.type: total protein half-life in vivo (h)
Express it in h; write the number only.

[in] In one line, give reported total protein half-life in vivo of the entry `MYRIVLGKVSTLSAAPLPPGLREQAPQGPRRERWLAGRALLSHTLSPLPEIIYGEQGKPAFAPEMPLWFNLSHSGDDIALLLSDEGEVGCDIEVIRPRANWRWLANAVFSLGEHAEMDAVHPDQQLEMFWRIWTRKEAIVKQRGGSAWQIVSVDSTYHSSLSVSHCQLENLSLAICTPTPFTLTADSVQWIDSVN` .
[out] 2.55

[in] In one line, give reported total protein half-life in vivo of the entry `MSDISKASLPKAIFLMGPTASGKTALAIELRKILPVELISVDSALIYKGMDIGTAKPNAEELLAAPHRLLDIRDPSQAYSAADFRRDALAEMADITAAGRIPLLVGGTMLYFKALLEGLSPLPSADPEVRARIEQQAAEQGWESLHRQLQEVDPVAAARIHPNDPQRLSRALEVFFISGKTLTELTQTSGDALPYQVHQFAIAPASRELLHQRIEQRFHQMLASGFEAEVRALFARGDLHTDLPSIRCVGYRQMWSYLEGEISYDEMVYRGVCATRQLAKRQITWLRGWEGVHWLDSEKPEQARDEVLQVVGAIAG` .
[out] 3.18

[in] In one line, give reported total protein half-life in vivo of the entry `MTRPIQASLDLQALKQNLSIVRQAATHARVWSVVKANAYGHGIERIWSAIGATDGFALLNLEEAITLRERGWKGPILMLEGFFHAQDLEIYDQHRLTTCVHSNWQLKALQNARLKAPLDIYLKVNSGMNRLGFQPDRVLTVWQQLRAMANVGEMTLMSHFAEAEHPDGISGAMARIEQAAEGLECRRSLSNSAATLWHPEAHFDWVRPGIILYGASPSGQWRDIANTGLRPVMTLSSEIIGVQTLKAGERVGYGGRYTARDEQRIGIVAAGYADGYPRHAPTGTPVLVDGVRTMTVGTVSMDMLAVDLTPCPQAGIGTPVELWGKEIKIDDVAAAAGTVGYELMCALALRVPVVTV` .
[out] 3.16

[in] In one line, give reported total protein half-life in vivo of the entry `MSKKLIALCACPMGLAHTFMAAQALEEAAVEAGYEVKIETQGADGIQNRLTAQDIAEATIIIHSVAVTPEDNERFESRDVYEITLQDAIKNAAGIIKEIEEMIASEQQ` .
[out] 2.27

[in] In one line, give reported total protein half-life in vivo of the entry `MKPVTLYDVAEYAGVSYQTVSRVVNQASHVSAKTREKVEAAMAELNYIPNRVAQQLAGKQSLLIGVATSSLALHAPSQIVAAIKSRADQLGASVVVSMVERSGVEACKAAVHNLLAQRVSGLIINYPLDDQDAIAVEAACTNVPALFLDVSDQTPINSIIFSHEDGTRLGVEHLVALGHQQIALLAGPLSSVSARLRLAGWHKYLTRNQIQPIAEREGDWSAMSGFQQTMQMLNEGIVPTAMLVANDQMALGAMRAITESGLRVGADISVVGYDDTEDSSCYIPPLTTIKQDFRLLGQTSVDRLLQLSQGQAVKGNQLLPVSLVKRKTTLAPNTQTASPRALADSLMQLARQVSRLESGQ` .
[out] 2.96

[in] In one line, give reported total protein half-life in vivo of the entry MSKCSADETPVCCCMDVGTIMDNSDCTASYSRVFANRAEAEQTLAALTEKARSVESEPCKITPTFTEESDGVRLDIDFTFACEAEMLIFQLGLR [P0AD33] .
[out] 2.3

[in] In one line, give reported total protein half-life in vivo of the entry `MVKTQRVVITPGEPAGIGPDLVVQLAQREWPVELVVCADATLLTNRAAMLGLPLTLRPYSPNSPAQPQTAGTLTLLPVALRAPVTAGQLAVENGHYVVETLARACDGCLNGEFAALITGPVHKGVINDAGIPFTGHTEFFEERSQAKKVVMMLATEELRVALATTHLPLRDIADAITPALLHEVIAILHHDLRTKFGIAEPRILVCGLNPHAGEGGHMGTEEIDTIIPVLNELRAQGMKLNGPLPADTLFQPKYLDNADAVLAMYHDQGLPVLKYQGFGRGVNITLGLPFIRTSVDHGTALELAGRGKADVGSFITALNLAIKMIVNTQ` .
[out] 2.98

[in] In one line, give reported total protein half-life in vivo of the entry `MAILGLGTDIVEIARIEAVIARSGDRLARRVLSDNEWAIWKTHHQPVRFLAKRFAVKEAAAKAFGTGIRNGLAFNQFEVFNDELGKPRLRLWGEALKLAEKLGVANMHVTLADERHYACATVIIES` .
[out] 2.85

[in] In one line, give reported total protein half-life in vivo of the entry `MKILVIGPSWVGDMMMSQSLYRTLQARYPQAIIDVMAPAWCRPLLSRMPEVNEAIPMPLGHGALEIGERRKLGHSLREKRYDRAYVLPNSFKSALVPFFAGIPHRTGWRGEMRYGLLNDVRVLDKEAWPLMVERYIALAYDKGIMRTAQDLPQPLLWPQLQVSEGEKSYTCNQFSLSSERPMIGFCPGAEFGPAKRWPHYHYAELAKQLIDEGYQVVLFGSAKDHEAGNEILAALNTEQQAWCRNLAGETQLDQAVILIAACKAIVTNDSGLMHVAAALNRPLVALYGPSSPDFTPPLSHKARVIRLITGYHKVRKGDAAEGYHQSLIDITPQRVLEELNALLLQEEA` .
[out] 3.24

[in] In one line, give reported total protein half-life in vivo of the entry `MPVRASIEPLTWENAFFGVNSAIVRITSEAPLLTPDALAPWSRVQAKIAASNTGELDALQQLGFSLVEGEVDLALPVNNASDSGAVVAQETDIPALRQLASAAFAQSRFRAPWYAPDASSRFYAQWIENAVRGTFDHQCLILRAASGDIRGYVSLRELNATDARIGLLAGRGAGAELMQTALNWAYARGKTTLRVATQMGNTAALKRYIQSGANVESTAYWLYR` .
[out] 3.03

[in] In one line, give reported total protein half-life in vivo of the entry `MDLSLLKALSEADAIASSEQEVRQILLEEADRLQKEVRFDGLGSVLIRLNESTGPKVMICAHMDEVGFMVRSISREGAIDVLPVGNVRMAARQLQPVRITTREECKIPGLLDGDRQGNDVSAMRVDIGARSYDEVMQAGIRPGDRVTFDTTFQVLPHQRVMGKAFDDRLGCYLLVTLLRELHDAELPAEVWLVASSSEEVGLRGGQTATRAVSPDVAIVLDTACWAKNFDYGAANHRQIGNGPMLVLSDKSLIAPPKLTAWVETVAAEIGVPLQADMFSNGGTDGGAVHLTGTGVPTVVMGPATRHGHCAASIADCRDILQMQQLLSALIQRLTRETVVQLTDFR` .
[out] 2.18
